// values below are reported viability at 28.5 h, 10 µM
Assay: in vitro
Settings: human, hela cells, % viability
A number alone suffices; assume %.

- smiles-data: "O=C(CO)N1CC2(CCN(Cc3cc(=O)[nH]c(=O)[nH]3)CC2)c2ccccc21"
  recorded-metric: "viability at 28.5 h, 10 µM"
  val: 106
- smiles-data: "Cc1cc2cc(CNCCCN3CCCC3=O)c(=O)[nH]c2cc1C"
  recorded-metric: "viability at 28.5 h, 10 µM"
  val: 81.4
- smiles-data: "OCc1ccc(-c2nccnc2NCc2cccc(C(F)(F)F)c2)cc1"
  recorded-metric: "viability at 28.5 h, 10 µM"
  val: 114
- smiles-data: "Nc1ncc(-c2ccc(C(=O)O)cc2)nc1-c1ccc(C(=O)N2CCOCC2)cc1"
  recorded-metric: "viability at 28.5 h, 10 µM"
  val: 90.8

API: the following record is the query input.
**Q:** Give its viability at 28.5 h, 10 µM value. Item: O=C(c1ccco1)N1CCc2cc(-c3cn4c(n3)CCCC4)ccc21
**A:** 98.8

* * *

Assay: in vitro
Conditions: human, hela cells, % viability
// values below are reported viability at 28.5 h, 10 µM
A number alone suffices; assume %.

**Q:** Give its viability at 28.5 h, 10 µM value. Item: C[C@@H]1CN2C[C@H](O)CC2CN1Cc1ccccc1C(F)(F)F (some centres unmarked)
**A:** 80.7

**Q:** Same again, this time with COC(=O)Cc1ccc(NC(=S)N2CCC(C(N)=O)(N3CCCCC3)CC2)cc1
**A:** 97.6

**Q:** Same again, this time with CSc1nc2n(n1)C(C)C1=C(CCCC1=O)N2 (centres unmarked)
**A:** 108

**Q:** Same again, this time with Cc1ccc(NC(=O)N2CCn3cccc3C2c2cccnc2)cc1 (centres unmarked)
**A:** 87.1

**Q:** Same again, this time with CC1Cc2cc(C(=O)C3=C(O)C(=O)N(Cc4ccco4)C3c3cccnc3)ccc2O1 (centres unmarked)
**A:** 104

* * *

Assay: in vitro
Conditions: human, hela cells, % viability
// values below are reported viability at 28.5 h, 10 µM
Please don't drop the unit; write it after the number.

- compound: "CCN(CC)CCn1cc(C2CCCN(C)CC2)c2ccccc21 (stereo not drawn) [CBK023788B]"
  val: "91.1%"

**Q:** Give its viability at 28.5 h, 10 µM value. Item: CNC(=O)CSc1nnc2[nH]c(=O)c(C)c(C)n12 [CBK287687]
**A:** 108%

**Q:** Same again, this time with CC(=O)N(c1ccc2oc3c(c2c1)CCCC3)S(=O)(=O)c1ccc(C(=O)O)cc1 [CBK299808]
**A:** 92.5%

**Q:** Same again, this time with Cc1cc(-c2nnc(SCC(=O)N3CCOCC3)o2)no1 [CBK268984]
**A:** 103%

**Q:** Same again, this time with CN(C(=O)c1c[nH]nc1-c1ccc(CNC(=O)Cc2ccc(F)cc2)cc1)c1ccccc1 [CBK285599]
**A:** 95.9%

**Q:** Same again, this time with O=C(C1CC1)N1C[C@@H](c2ccccc2)[C@H](c2cc(C(F)F)[nH]n2)C1 [CBK284791]
**A:** 91.1%

**Q:** Same again, this time with NC(=O)[C@@H]1C[C@@H](O)[C@H](O)[C@H]2[C@@H]1N(c1ccccc1)C(=S)N2Cc1ccc(F)cc1 [CBK288928]
**A:** 102%

**Q:** Same again, this time with O=C(O)CCCC(=O)Nc1cc(C(=O)O)ccc1Cl [CBK267907]
**A:** 116%

**Q:** Same again, this time with Cc1c(NC(=S)NCCCN2CCOCC2)c(=O)n(-c2ccccc2)n1C [CBK008032]
**A:** 90.7%
